experiment: Cmax in fasted healthy human at 60 mg/kg, po
Assay type: ADME, organism-based
Parameters: dose 60 mg/kg, route oral
details: in vivo
assay-metric: Cmax

smiles | value-observed
COC(=O)N[C@H](C(=O)N1CC2(CC2)C[C@H]1c1nc(-c2ccc3c(c2)C(F)(F)c2cc(-c4ccc5[nH]c([C@@H]6[C@H]7CC[C@H](C7)N6C(=O)[C@@H](NC(=O)OC)C(C)C)nc5c4)ccc2-3)c[nH]1)C(C)C | 133 nM

---

experiment: AUClast in fasted healthy human at 3 mg/kg, po
Format: ADME, organism-based
Parameters: time 0 - last, dose 3 mg/kg, route oral
details: plasma
assay-metric: AUC(0-t) (µM·h)

smiles | value-observed
COC(=O)N[C@H](C(=O)N1CC2(CC2)C[C@H]1c1nc(-c2ccc3c(c2)C(F)(F)c2cc(-c4ccc5[nH]c([C@@H]6[C@H]7CC[C@H](C7)N6C(=O)[C@@H](NC(=O)OC)C(C)C)nc5c4)ccc2-3)c[nH]1)C(C)C | 0.14

---

experiment: Plasma concentration in fasted healthy human at 60 mg/kg, po at 24 hrs
Format: ADME, organism-based
Design: dose 60 mg/kg, route oral
assay-metric: concentration at 24 h

smiles | assay-metric | value-observed
COC(=O)N[C@H](C(=O)N1CC2(CC2)C[C@H]1c1nc(-c2ccc3c(c2)C(F)(F)c2cc(-c4ccc5[nH]c([C@@H]6[C@H]7CC[C@H](C7)N6C(=O)[C@@H](NC(=O)OC)C(C)C)nc5c4)ccc2-3)c[nH]1)C(C)C | concentration at 24 h | 56.4 nM

---

experiment: Half life in fasted healthy human at 10 mg/kg, po
Format: ADME, organism-based
Parameters: dose 10 mg/kg, route oral
details: in vivo

smiles | half-life [h]
COC(=O)N[C@H](C(=O)N1CC2(CC2)C[C@H]1c1nc(-c2ccc3c(c2)C(F)(F)c2cc(-c4ccc5[nH]c([C@@H]6[C@H]7CC[C@H](C7)N6C(=O)[C@@H](NC(=O)OC)C(C)C)nc5c4)ccc2-3)c[nH]1)C(C)C | 42.4

---

experiment: Half life in fasted healthy human at 3 mg/kg, po
Format: ADME, organism-based
Design: dose 3 mg/kg, route oral
details: in vivo
assay-metric: half-life (h)

smiles | assay-metric | display-unit | value-observed
COC(=O)N[C@H](C(=O)N1CC2(CC2)C[C@H]1c1nc(-c2ccc3c(c2)C(F)(F)c2cc(-c4ccc5[nH]c([C@@H]6[C@H]7CC[C@H](C7)N6C(=O)[C@@H](NC(=O)OC)C(C)C)nc5c4)ccc2-3)c[nH]1)C(C)C | half-life | h | 45.2

---

experiment: Metabolic stability in cynomolgus monkey liver microsomes assessed as hepatic extraction at 3 uM after 60 mins by LC/MS/MS analysis
Type: ADME, Macaca fascicularis, Microsome
details: read-out: ERH

smiles | hepatic extraction ratio at 1 h, 3 µM
COC(=O)N[C@H](C(=O)N1CC2(CC2)C[C@H]1c1nc(-c2ccc3c(c2)C(F)(F)c2cc(-c4ccc5[nH]c([C@@H]6[C@H]7CC[C@H](C7)N6C(=O)[C@@H](NC(=O)OC)C(C)C)nc5c4)ccc2-3)c[nH]1)C(C)C | < 0.127

---

experiment: Cmax in fasted healthy human at 30 mg/kg, po
Format: ADME, organism-based
Design: dose 30 mg/kg, route oral
details: in vivo
assay-metric: Cmax (nM)

smiles | display-unit | value-observed
COC(=O)N[C@H](C(=O)N1CC2(CC2)C[C@H]1c1nc(-c2ccc3c(c2)C(F)(F)c2cc(-c4ccc5[nH]c([C@@H]6[C@H]7CC[C@H](C7)N6C(=O)[C@@H](NC(=O)OC)C(C)C)nc5c4)ccc2-3)c[nH]1)C(C)C | nM | 82.2

---

experiment: AUC (infinity) in fasted healthy human at 30 mg/kg, po
Type: ADME, organism-based
Design: time infinity, dose 30 mg/kg, route oral
details: plasma
assay-metric: AUC(0-inf) (µM·h)

smiles | value-observed
COC(=O)N[C@H](C(=O)N1CC2(CC2)C[C@H]1c1nc(-c2ccc3c(c2)C(F)(F)c2cc(-c4ccc5[nH]c([C@@H]6[C@H]7CC[C@H](C7)N6C(=O)[C@@H](NC(=O)OC)C(C)C)nc5c4)ccc2-3)c[nH]1)C(C)C | 2.72

---

experiment: AUClast in fasted healthy human at 100 mg/kg, po
Type: ADME, organism-based
Set-up: time 0 - last, dose 100 mg/kg, route oral
details: plasma
assay-metric: AUC(0-t) (µM·h)

smiles | value-observed
COC(=O)N[C@H](C(=O)N1CC2(CC2)C[C@H]1c1nc(-c2ccc3c(c2)C(F)(F)c2cc(-c4ccc5[nH]c([C@@H]6[C@H]7CC[C@H](C7)N6C(=O)[C@@H](NC(=O)OC)C(C)C)nc5c4)ccc2-3)c[nH]1)C(C)C | 7.05

---

experiment: Half life in cynomolgus monkey at 0.5 mg/kg, iv
Type: ADME, organism-based, Macaca fascicularis
Design: dose 0.5 mg/kg, route intravenous
details: in vivo
assay-metric: half-life (min)

smiles | display-unit | value-observed
COC(=O)N[C@H](C(=O)N1CC2(CC2)C[C@H]1c1nc(-c2ccc3c(c2)C(F)(F)c2cc(-c4ccc5[nH]c([C@@H]6[C@H]7CC[C@H](C7)N6C(=O)[C@@H](NC(=O)OC)C(C)C)nc5c4)ccc2-3)c[nH]1)C(C)C | min | 618
